Source: patent US20210163404A1

Field: melting point. Provide a value for each of the compounds that follow.

Measured melting point of S=C(Nc1cccc(I)c1)NC1CC1 : 142 to 152 °C

Input CC(C)(C)c1ccc(NC(=S)NC2CCCC2)cc1 . Output melting point: 142 to 154 °C

Recorded result, COCCNC(=O)Nc1cccc(C(C)(C)C)c1 , melting point: 119 to 120 °C

Lab book: melting point of O=C(NCC1CC1)Nc1ccc(C2CCCCC2)cc1 noted as 178 to 181 °C

# melting point of CCNC(=S)Nc1ccc(C(C)(C)C)cc1 = 109 to 115 °C

For this compound ( CC(C)(C)c1cccc(NC(=O)NC2CCCC2)c1 ), measured melting point is 152 to 154 °C

response.value for CC(C)NC(=O)Nc1ccc(C(C)(C)C)cc1 (field: melting point) = 152 to 155 °C

The compound listed as CCCNC(=O)Nc1ccc(C(C)(C)C)cc1 has a reported melting point of 147 to 151 °C

O=C(NCC1CC1)Nc1ccc(I)cc1 has a reported melting point of 192 to 194 °C

Reported melting point of CC(C)(C)NC(=O)Nc1ccc(C(C)(C)C)cc1 : 167 to 174 °C

Reported melting point of CCC(CC)NC(=O)Nc1cccc(C(C)(C)C)c1 : 159 to 161 °C

Entry CC(C)(C)NC(=O)Nc1ccc(C2CCCCC2)cc1 ; melting point = 182 to 189 °C

// field: melting point; key: CC(C)(C)c1cccc(NC(=O)NCC2CCC2)c1 ; value = 126 to 127 °C

Please fill in: melting point reported for CC(C)(C)NC(=O)Nc1cccc(C2CCCCC2)c1 = 195 to 203 °C

---

- System: HDFn neonatal dermal fibroblast cell line
- procedure details: Antiproliferative activity (NCI procedure, sulforhodamine B), HDFn
- Format: cell-based, human
- condition context: Homo sapiens, Fibroblast; Table 5; unit inferred, tested 781 nM to 100 μM, 48 h
measurement type: pIC50
Scale note: pIC50 = -log10(concentration in M).

Note to self: pIC50 recorded for CCCNC(=O)Nc1cccc(C2CCCCC2)c1 was 4.64

Field pIC50 (entry CCCNC(=O)Nc1ccc(I)cc1 ) reads 4.09

# compound CC(C)NC(=O)Nc1ccc(C2CCCCC2)cc1 ; its pIC50 = 4.23

pIC50 measured on CC(C)(C)NC(=O)Nc1cccc(I)c1 = 4.76

Recorded result, CCCNC(=O)Nc1ccc(C2CCCCC2)cc1 , pIC50: 4.23

Notebook: CC(C)NC(=O)Nc1ccc(I)cc1 , pIC50 read as 4.08

For reference, reported pIC50 for CCCNC(=O)Nc1cccc(C(C)(C)C)c1 stands at 4.09

The compound identified as CC(C)(C)NC(=O)Nc1ccc(I)cc1 registered its pIC50 at 4.57

So for CC(C)(C)NC(=O)Nc1ccc(C2CCCCC2)cc1 , the logged pIC50 turned out to be 4.76

# compound CC(C)(C)NC(=O)Nc1ccc(C(C)(C)C)cc1 ; its pIC50 = 4.84

// CC(C)NC(=O)Nc1cccc(I)c1 : pIC50 value = 4.23

Measured pIC50 of CC(C)NC(=O)Nc1cccc(C2CCCCC2)c1 : 4.52

CCCNC(=O)Nc1cccc(I)c1 has a reported pIC50 of 4.35
